# System: SF-295 CNS
# assay.summary: NCI-60 one-dose screen, 48 h (100 = growth as untreated, 0 = no growth, -100 = all killed)
# test.conditions: 10 µM unless noted
About 83,000 compounds went through this panel and 20% of them were active in at least one assay; those are over-represented in the sample as a whole.
Some compounds, each annotated with its measured growth.
Use % as the unit, but write only the number.

Some solved entries appear below for comparison.
| smiles.text | unit.spec | numeric.value |
| --- | --- | --- |
| CCc1cccc2c1S/C(=C/c1ccc(OC)cc1)C2=O | % | 62.9 |
| O=C(COc1ccc(/C=C2\Cc3ccc(Cl)cc3C2=O)cc1)Nc1nc2ccccc2s1 | % | 108 |

IN: Dear colleague, please send me the reported growth for CS(=O)(=O)N(c1cc(-c2ccc3ncnc(Nc4ccc(F)c(Cl)c4)c3c2)cnc1Cl)S(C)(=O)=O when you can.
OUT: 34

IN: Annotate the compound COc1cccc(Cc2cc(-c3ccccc3)nn(CC(=O)c3ccccc3)c2=O)c1 with its measured growth.
OUT: 68.1

IN: Report growth for CCN(CC)S(=O)(=O)c1ccc(NC(=O)CSc2nnc(C)n2-c2ccccc2)cc1
OUT: 115

---

# Tested on: SF-295 CNS
# assay.summary: NCI-60 one-dose screen, 48 h
# test.conditions: 10 µM unless noted
This is part of a sample that, as a whole, favours compounds with a hit. Of some 83,000 tested, about 20% had one in any assay. Active and inactive are the calls of the source. Rule for the calls: active = growth percent below 10; inactive = the rest.
Write down the outcome that applies. Available outcomes: True for active, False for inactive

Solved entries (count: 5):
| compound | class.name |
| --- | --- |
| CN1CCN(Cc2ccc(NC(=O)c3ccc(C(C)(C)C)c(C#Cc4cnc5cccnn45)c3)cc2C(F)(F)F)CC1 | True |
| COc1ccc2c(c1)c(-c1ccc(-c3cn(C)c4ccc(OC)cc34)o1)cn2C | False |
| Cc1cc(C)c(-c2c(N)cc(Br)cc2Br)c(N)c1 | False |
| COC(=O)c1ccc2[nH]c(O)c(C(=Nc3ccc(N(C)C(=O)CN4CCN(C)CC4)cc3)c3ccccc3)c2c1 | False |
| CCc1ccc(Oc2c(-c3ccc(OCc4ccc(Cl)cc4)cc3O)n[nH]c2C(F)(F)F)cc1 | False |

IN: State the result this test recorded for Cc1nc2ccccc2c(/C=C/c2ccc(Cl)cc2)c1C(=O)/C=C/c1ccc(C(F)(F)F)cc1 .
OUT: True

IN: # fetch the recorded call for CC(C)(C)NC(=O)C(OC(=O)c1cccc(Cl)c1)c1ccc(Cl)cc1 (stereo not given) here
OUT: False

IN: Could you please tell me the result logged for COc1ccc(/C=C/c2c(C(=O)/C=C/c3ccc(C(F)(F)F)cc3)c(C)nc3ccccc23)cc1 in this assay?
OUT: True

IN: Which outcome did this test record for the compound Cc1nc2nc(SCC(=O)O)[nH]c2c(=O)[nH]1 ?
OUT: False

IN: // return assay outcome for COc1cc(C(=O)/C=C/c2c(Cl)nc3sccn23)cc(OC)c1OC
OUT: False

---

# Tested on: HOP-62 NSCLC
# assay.summary: NCI-60 one-dose screen, 48 h (100 = growth as untreated, 0 = no growth, -100 = all killed)
# test.conditions: 10 µM unless noted
# Method: Growth inhibition of the HOP-62 human Non-Small Cell Lung tumor cell line is measured as a screen for anti-cancer activity. Cells are grown in 96 well plates and exposed to the test compound for 48 hours. Compounds are tested at a single concentration, which is 10^-5 M for most compounds. The reported endpoint is percent growth (GI% or GIPRCNT), where numbers from 0 - 100% represent growth inhibition, and numbers from -100% - 0 represent cell death. […]
About 83,000 compounds went through this panel and 20% of them were active in at least one assay; those are over-represented in the sample as a whole.
Here the recorded growth is given for each entry.
The reply should contain only the number, in %.

The following compounds have reported results that may help.
| compound | assayed.system | unit.spec | numeric.value |
| --- | --- | --- | --- |
| COc1ccc(NC(=O)n2nc(/C=C\c3ccc(O)c(OC)c3)cc2/C=C\c2ccc(O)c(OC)c2)cc1 | HOP-62 NSCLC | % | 32.7 |
| CCN1C(=O)N(CC)C2Nn3c(s/c(=C\c4ccc([N+](=O)[O-])cc4)c3=O)=NC21 (stereo not given) | HOP-62 NSCLC | % | 96.2 |
| COC(=O)Nc1ccc(-c2nc(-c3cccc(OC)c3)c(-c3ccnc(Br)c3)[nH]2)cc1 | HOP-62 NSCLC | % | 59.4 |
| Cc1nc(/N=C(\N)NC(=O)Nc2ccccc2Cl)sc1C | HOP-62 NSCLC | % | 45 |

// moving on: another record for growth
IN: Supply growth value. Item: Cc1cc(=O)[nH]c(=O)n1Cc1cn(-c2c3ccccc3nc3ccccc23)nn1
OUT: 95.6

---

# Test system: UO-31 renal
# assay.summary: NCI-60 one-dose screen, 48 h
# test.conditions: 10 µM unless noted
This is part of a sample that, as a whole, favours compounds with a hit. Of some 83,000 tested, about 20% had one in any assay. The source made the active and inactive calls. Rule for the calls: active = growth percent below 10; inactive = the rest.
API: response.call in active, inactive

| compound | class.name |
| --- | --- |
| COc1cc2cc(Oc3ccc(NC(=O)Nc4ccc(Cl)c(Cl)c4)cc3)c(C)nc2cc1OCCN1CCOCC1 | inactive |
| CCN1C(=O)N(CC)C2Nn3c(s/c(=C4\C(=O)N(CC(C)C)c5ccccc54)c3=O)=NC21 (centres undefined) | inactive |
| N#Cc1ccc(NC(=O)c2sc3nc4c(cc3c2N)C(=O)CCC4)cc1 | inactive |
| O=c1c2cc(C(F)(F)F)ccc2sc2c(NCCCNCCO)nc3ccccc3c12 | inactive |
| Cc1cccc2c3c(sc12)C(c1ccc(Cl)cc1)C(C#N)=C(N)O3 (centres undefined) | inactive |
| Cc1ccc(-c2nc(SCC(=O)Nc3nc(-c4ccc(Cl)cc4)cs3)[nH]c(=O)c2C#N)cc1 | inactive |

IN: Dear colleague, could you share the recorded outcome for CN1CCN(c2ccc(-c3cnc4c(-c5csc6ccccc56)cnn4c3)cc2)CC1 when you have a moment?
OUT: active

IN: So what was the verdict on CN(C)c1ccc(/C=N\Nc2cc(=O)[nH]c3ccc(Cl)cc23)cc1 in this test?
OUT: inactive

IN: For O=[N+]([O-])c1ccc(Oc2nc(Nc3ccc(O[C@H]4CO[C@H]5[C@@H]4OC[C@@H]5O)c(Cl)c3)ncc2F)c(Cl)c1 , which call appears in the assay record?
OUT: active

---

# Tested on: MALME-3M melanoma
# assay.summary: NCI-60 one-dose screen, 48 h (100 = growth as untreated, 0 = no growth, -100 = all killed)
# test.conditions: 10 µM unless noted
Compounds without any hit were thinned out: in the full panel of roughly 83,000, 20% have a hit.
Class rule met: growth at least 30%. Class rule not met: growth below 30%.

Take a look at these entries with their results.
| smiles.text | class.name |
| --- | --- |
| S=C(c1cccs1)N1CCN(c2cccc(Cl)c2)CC1 | rule met |
| CCCCCCNC(=O)Oc1ccc(/C(=C(\C)c2ccc(Cl)cc2)c2ccc(OCCN3CCCCC3)cc2)cc1 | rule met |
| C=C1C(=O)O[C@H]2[C@H]1CC/C(COC(=O)CSCC(=O)OC/C1=C/CC[C@@]3(C)O[C@H]3[C@H]3OC(=O)C(=C)[C@@H]3CC1)=C\CC[C@@]1(C)O[C@@H]21 | rule not met |
| Brc1c[n+](Cc2ccc3ccccc3c2)cn1Cc1ccc2ccccc2c1 | rule not met |
| N#C/C(=C\c1cccc2cnccc12)n1nnc2cccc(F)c21 | rule not met |

IN: Please indicate if the recorded growth for O=C(Cc1ccc(F)c(Cl)c1)Nc1cc(C2(C(F)(F)F)CC2)nn1Cc1ccccc1 meets or exceeds 30%.
OUT: rule met

IN: Test whether the compound Oc1ccc(C#CCOc2ccccc2)cc1CNCCN(Cc1ccccn1)Cc1ccccn1 records growth of 30% or higher.
OUT: rule not met

IN: Evaluate COc1ccc(C(=O)COC(=O)[C@H](C[Se][Se]C[C@H](NC(=O)c2ccc(Br)cc2F)C(=O)OCC(=O)c2ccc(OC)cc2)NC(=O)c2ccc(Br)cc2F)cc1 : growth at minimum 30%?
OUT: rule not met

---

# Tested on: CAKI-1 renal
# assay.summary: NCI-60 one-dose screen, 48 h (100 = growth as untreated, 0 = no growth, -100 = all killed)
# test.conditions: 10 µM unless noted
This is part of a sample that, as a whole, favours compounds with a hit. Of some 83,000 tested, about 20% had one in any assay.
The reader will find reported growth values listed item by item below.
The answer is to be given in %; state only the numeric part.

Consider the following illustrative entries.
| compound | assayed.system | numeric.value |
| --- | --- | --- |
| COc1ccc(-c2cnc3ccccc3n2)cc1 | CAKI-1 renal | 84.4 |
| CCOc1ccc2nc(SCc3nc4n(n3)S(=O)(=O)c3ccccc3N4C)sc2c1 | CAKI-1 renal | -39.5 |
| Cc1ccc(S(=O)(=O)N/N=C/C2(c3ccccc3)CC2)cc1 | CAKI-1 renal | 92.6 |
| Cc1cc(=O)[nH]c(=O)n1Cc1cn(-c2c3ccccc3nc3ccccc23)nn1 | CAKI-1 renal | 91 |
| O=c1[nH][n+](-c2ccc(Br)cc2)no1 | CAKI-1 renal | 18.5 |

With those in mind, consider the next compound.
IN: Annotate the compound COc1ccc(C2NC(=O)C(C#N)c3c2sc2c(F)cccc32)c(OC)c1 (stereo unspecified) with its measured growth.
OUT: 21.4
